// data source = the supplement of paper PMC10567573

What protein stability index was measured for each of the following?
B1: DCAF4 (parent)
chain: DSHILLCLMGLAETPGCATLLPAS

# Variants of: B1
# test.description: protein stability index of a GFP-peptide fusion (GPS, HEK-293T) (PSI 1-6); higher = more stable;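 note: lentivirally expressed fusions sorted by FACS into six bins by GFP to DsRed ratio, PSI derived from sequencing read proportions per bin multiplied by bin number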
# measurement.parameters: c terminus: a fixed tail appended

Below, each entry is followed by its recorded protein stability index result.
{"sequence.text": "DSHILHCLMGLAETPGCATLLPAS", "protein stability index": 1.9}
{"sequence.text": "DSHILLCKMGLAETPGCATLLPAS", "protein stability index": 2.02}
{"sequence.text": "DIHILLCLMGLAETPGCATLLPAS", "protein stability index": 2.04}
{"sequence.text": "DSHILLCMMGLAETPGCATLLPAS", "protein stability index": 3.25}
{"sequence.text": "DSHILLCLQGLAETPGCATLLPAS", "protein stability index": 2.26}

Value sought for every listed variant: protein stability index.
1. DSHILLCLMGLAYTPGCATLLPAS
2. DSHILLCLMGLAETPGCAGLLPAS
3. DAHILLCLMGLAETPGCATLLPAS

Marked response:
1: 3.33; 2: 2.93; 3: 3.22

// for each variant below, give its protein stability index
1. DSHILLCLMGLAETPMCATLLPAS
2. DSHITLCLMGLAETPGCATLLPAS
3. DSHILLCLMGLAETPGCATKLPAS

Marked response:
[2.6, 1.65, 2.4]

Give protein stability index for each listed item.
1. DSHILLCLMGLWETPGCATLLPAS
2. DSAILLCLMGLAETPGCATLLPAS
3. DSHILLCLMGLAETPGLATLLPAS

Marked response:
4.01
2.76
2.23

For each of the variants below, state protein stability index.
1. DSHILLCLMGLAETPDCATLLPAS
2. DSHYLLCLMGLAETPGCATLLPAS

Marked response:
3.45
2.33
